Measured Dh (nm) accompanies every entry in the list below.
experiment description: DLS size of dendrimersomes assembled from glycerol-JDs in water at different concentrations
Format: physicochemical
test context: JD 0.5 mg·mL−1 in water; size distribution by intensity
Experimental: Assembly of all eight glycerol-JDs was performed by injection of their ethanol solution (50 μL) into 1 mL of Milli-Q water. The size distribution and structure of resulting DSs were analyzed by DLS (FIG. 84) and cryo-TEM. […] In a certain concentration range the size of DSs increased with the concentration of JDs injected in water or buffer. […] The dimensions of the assemblies were identical when the concentrations of the JDs in water were identical. […]
Express your answer in nm, writing the number without its unit.

Task: Provide Dh (nm) value for the following compound: CCCCCCCCCCCCOc1cc(OCCCCCCCCCCCC)cc(C(=O)OC[C@H](COC(=O)C(C)(COC(=O)c2cc(OCCOCCOCCOC)c(OCCOCCOCCOC)c(OCCOCCOCCOC)c2)COC(=O)c2cc(OCCOCCOCCOC)c(OCCOCCOCCOC)c(OCCOCCOCCOC)c2)OC(=O)c2cc(OCCCCCCCCCCCC)cc(OCCCCCCCCCCCC)c2)c1 [Compound 1R, (3,5)-12G1-GC-(R)-BMPA-(3,4,5)-3EO-G1]
Output: 233

Task: Provide Dh (nm) value for the following compound: CCCCCCCCCCCCOc1cc(OCCCCCCCCCCCC)cc(C(=O)OCC(C)(COC(=O)c2cc(OCCCCCCCCCCCC)cc(OCCCCCCCCCCCC)c2)C(=O)OC[C@H](COC(=O)c2cc(OCCOCCOCCOC)c(OCCOCCOCCOC)c(OCCOCCOCCOC)c2)OC(=O)c2cc(OCCOCCOCCOC)c(OCCOCCOCCOC)c(OCCOCCOCCOC)c2)c1 [Compound 2S, (3,5)-12G1-BMPA-GC-(S)-(3,4,5)-3EO-G1]
Output: 288
